Test system: CCRF-CEM leukemia
Assay overview: NCI tumour cell line growth inhibition, 48 h
Endpoint name: TGI

The examples below pair each entry with its known result.
NCCNS(=O)(=O)c1ccc(N)cc1: > 100 µM
Cc1cc(S(=O)(=O)NC2=NCC(C)NN2)c(S)cc1Cl (stereo unspecified): > 100 µM
O=c1oc2ccc(Br)cc2c(=O)n1-c1ccc(Br)cc1F: 4.95 µM
Cc1ccc(S(=O)(=O)Nn2c(S)c(C#N)c(-c3ccc(N(C)C)cc3)c(C#N)c2=O)cc1: > 100 µM
CCOC(=O)c1c(SC(=O)C(C)(C)Oc2ccc(Cl)cc2)n(-c2ccccc2)c(=S)n(-c2ccccc2)c1=O: 75.5 µM

For every item below, please supply its TGI.
1. O=C(/C=C/c1ccc(Cl)cc1)c1ccc(Cl)c(Cl)c1
2. Clc1nc(Cl)c2ncn(C/C=C\COc3cccc(OC/C=C\Cn4cnc5c(Cl)nc(Cl)nc54)c3)c2n1
3. CN1c2ccc(O)c(O)c2-c2cc(O)cc3c2C1CCC3 (stereo unspecified)

["50.5 µM", "> 100 µM", "9.61 µM"]

For every item below, please supply its TGI.
1. O=C(NCc1ccccc1)c1cc2ccc(O)c(O)c2cn1
2. Cc1c2c(nn1-c1ccc(S/N=C3\SCC(=O)CN3Cc3ccccc3)cc1)-c1ccccc1CC2

1: > 100 µM; 2: > 100 µM

Hey, CCRF-CEM leukemia data for `O=C1/C(=C\c2ccc(Cl)cc2)CCOc2c1ccc1ccccc21` : TGI came out at > 100 µM

====

Record form. Attribute: GI50. Fill in for each entry.
Test system: OVCAR-5 ovarian
Assay overview: NCI tumour cell line growth inhibition, 48 h

The examples below pair each entry with its known result.
Oc1c(I)cc(I)cc1CNCCN(Cc1ccccn1)Cc1ccccn1: 1.42 µM
Cn1cc(-c2nonc2-c2cn(C)c3ccc(F)cc23)c2ccccc21: 1.05 µM
O=C(OCc1nc2nc(Cl)nc(N3CCOCC3)c2[nH]1)n1ccnc1: 1.52 µM
Clc1ccc(CNc2ccc3nc(CCC4CCCCC4)[nH]c3c2)cc1: 2.39 µM
CCCN1CCN(c2ccc3nc(-c4ccc5nc(-c6ccc(C(F)(F)F)cc6)[nH]c5c4)[nH]c3c2)CC1: 1.93 µM

For every item below, please supply its GI50.
1. O=C1C(Br)=CC2C1C1C3CCC3C2(Br)C12OCCO2 (stereo unspecified)
2. CCN(CC)c1ccc(/C=N/NC(=O)c2ccc(S(C)(=O)=O)cc2)c(O)c1
3. C/C(=C1\SC(=NCc2cccs2)NC1=O)c1ccc2ncccc2c1

1. 2.47 µM
2. 2.86 µM
3. > 25 µM

For every item below, please supply its GI50.
1. C=CCNCCN1C(=O)c2ccc3c4c(ccc(c24)C1=O)C(=O)N(CCNCC=C)C3=O
2. O=C(NCCCN1CCC(N2CCCCC2)CC1)C1=Cc2cc(Br)ccc2OC1
3. COc1cc(C2CC(c3cccc(Nc4ccnc5cc(Cl)ccc45)c3)=NN2C=O)cc(OC)c1OC (stereo unspecified)
4. C[C@H]1CCC/C=C/[C@@H]2C[C@H](O)C[C@H]2[C@H](O)[C@@H](S(=O)C[C@@H](N)C(=O)O)CC(=O)O1 (stereo partly specified)
5. O=c1[nH]cnc2c1ccn2C1OC(CO)C(O)C1O (stereo unspecified)
6. CCCCCCCCCC(CCCC(O)CC(=O)O)OC1OC(COC2OC(C)C(O)C(O)C2O)C(O)C(O)C1OC1OC(CO)C(O)C(O)C1OC1OC(C)C(OC(=O)CC(C)C)C(O)C1O (stereo unspecified)
7. Clc1ccc(Nc2nnc(CNc3ccccc3)c3ccccc23)cc1
8. COc1ccc(NC(=O)Nc2ccccc2CNc2nc(Nc3ccc(OCCN4CCCC4)cc3)ncc2Cl)cc1

["1.04 µM", "19.9 µM", "3.5 µM", "> 100 µM", "12 µM", "> 60 µM", "4.92 µM", "1.02 µM"]

====

Record form. Attribute: TGI. Fill in for each entry.
Test system: SK-MEL-28 melanoma
Assay overview: NCI tumour cell line growth inhibition, 48 h

The examples below pair each entry with its known result.
CCOc1ccccc1N1C(=O)C(=O)C(c2nc3ccccc3s2)C(=O)C1=O: > 100 µM
O=C(O)CCN1CCN(CCC(=O)O)CCN(CCC(=O)O)CC1: > 100 µM
S=c1nc2sc3c(c2c(Nc2ccccc2)[nH]1)CCCC3: > 100 µM
COc1cc(C)cc2c1[nH]c1ccccc12: > 25 µM
NC(=O)C(N)CC12CC3CC(CC(C3)C1)C2 (configuration not stated): 55.4 µM

For every item below, please supply its TGI.
1. Cc1cc2nc(N3C(=O)/C(=C/c4ccc(Oc5ccccc5)cc4)N=C3c3ccccc3)sc2cc1C
2. O=c1[nH]cnc2c1ccn2C1OC(CO)C(O)C1O (configuration not stated)
3. COc1cc2c(cc1OC)C(C#N)(Cc1ccccc1)N(C(=O)c1ccccc1)C=C2 (configuration not stated)
4. c1ccc(-c2[o+]c(-c3ccccc3)c(-c3ccccc3)c(-c3ccccc3)c2-c2ccccc2)cc1

1: > 100 µM; 2: > 100 µM; 3: > 100 µM; 4: > 100 µM

For every item below, please supply its TGI.
1. N#C/C(=C/NC(=S)NCc1ccccc1)C(N)=O
2. O=C(OCc1nc2nc(Cl)nc(N3CCOCC3)c2[nH]1)n1ccnc1
3. C1OC1C1CO1 (configuration not stated)
4. Clc1ccc2c(NCCNC3CCCCC3)ccnc2c1
5. COC(=O)/C(=N/NC(N)=O)C(C(=O)C(=O)Nc1ccc(C)cc1)c1nc2ccc(C(=O)c3ccccc3)cc2[nH]c1=O (configuration not stated)

1. > 100 µM
2. 3.24 µM
3. > 100 µM
4. 3.62 µM
5. > 100 µM

For every item below, please supply its TGI.
1. CS(=O)(=O)CCN(CC#N)Cc1ccc(-c2ccc3ncnc(Nc4ccc(OCc5cccc(F)c5)c(Cl)c4)c3c2)o1
2. CCCCCCCCCCCCCCCCCCOP1(=O)OCCO1

> 25 µM
> 100 µM

====

Test system: RPMI-8226 leukemia
Assay overview: NCI tumour cell line growth inhibition, 48 h
Endpoint name: TGI (µM)
Numbers only, in µM.

O=C1C(NCCF)=C(Cl)C(=O)c2ncccc21: 1.78
O=C(N=Nc1c(O)[nH]c2ccccc12)C(O)(c1ccccc1)c1ccccc1: 62

Please find the next compound below.
In plain terms, `CC(C)(C)C1=Nc2c(Br)cc(C(C)(C)C)cc2C(C(F)(F)F)(C(F)(F)F)O1` has a documented TGI of 66.3

====

Tested on: HCC-2998 colon
Assay overview: NCI tumour cell line growth inhibition, 48 h
Endpoint name: TGI

For every item below, please supply its TGI.
1. O=C1OC(c2ccccc2)=N/C1=C\c1ccc(Cl)cc1
2. COc1cc(C2CC(c3cccc(Nc4ccnc5cc(Cl)ccc45)c3)=NN2C=O)cc(OC)c1OC (centres undefined)
3. C=C1c2nc3ccccc3n2C=C(c2ccc(OC)cc2)N1c1ccccc1
4. Brc1ccc(-c2[nH]c3ccccc3c2N=Nc2ccccc2)cc1
5. COc1cccc2c1C(=O)c1c(O)c3c(c(O)c1C2=O)C[C@@](O)(C(C)=O)C[C@@H]3O[C@H]1C[C@H](N)[C@H](O)[C@H](C)O1

1: > 100 µM; 2: 24.4 µM; 3: 39.8 µM; 4: 30.7 µM; 5: 0.475 µM

For every item below, please supply its TGI.
1. CN=c1ss/c(=N\C(=S)N(C)C)n1-c1ccccc1
2. CCOC(=O)c1c(SC(=O)C(C)(C)Oc2ccc(Cl)cc2)n(-c2ccccc2)c(=S)n(-c2ccccc2)c1=O
3. Nc1nc(Cl)nc(NCc2ccccc2)n1
4. C#C[C@]1(O)CCC2C3CCc4cc(Oc5nc(F)nc(-n6c(C)nc7cc8ccccc8cc76)n5)ccc4C3CCC21C (some centres undefined)

["> 100 µM", "> 100 µM", "> 100 µM", "> 100 µM"]

====

Record form. Attribute: TGI. Fill in for each entry.
Test system: PC-3 prostate
Assay overview: NCI tumour cell line growth inhibition, 48 h
One number for each entry, in µM.

The examples below pair each entry with its known result.
CNC(=O)Oc1ccc(C(=S)Nc2ccc(Br)cc2)cc1: 83.3
COc1cc(C2CC(c3cccc(Nc4ccnc5cc(Cl)ccc45)c3)=NN2C=O)cc(OC)c1OC (stereo not given): 19.2
COc1cc(/C=C2\C[C@H]3[C@@H]4CC=C5C[C@@H](OC(C)=O)CC[C@]5(C)[C@H]4CC[C@]3(C)\C2=N\O)cc(OC)c1OC: 18.6
CCCCCCN1C(=O)CC(=O)N(CCCCCC)S1(=O)=O: 60
CC(C)(O)/C=C/C(=O)[C@](C)(O)[C@H]1[C@H](O)C[C@@]2(C)[C@@H]3CC=C4[C@@H](C=C(O)C(=O)C4(C)C)[C@]3(C)C(=O)C[C@]12C: 5.56
CC(=O)OCc1cnc2c3c(nc4ccccc4c13)C(=O)c1cccnc1-2: 2.42
N=C1N(/N=C/c2ccccn2)C(=Nc2ccccc2)C(=S)N1c1ccccc1: 15.8
CC(C)c1cc2c(c(O)c1O)[C@@]1(C)CCCC(C)(C)C1=C(O)C2: 3.51

For every item below, please supply its TGI.
1. O=C1C(Br)=CC2C1C1C3CCC3C2(Br)C12OCCO2 (stereo not given)
2. Oc1c(I)cc(I)cc1CNCCN(Cc1ccccn1)Cc1ccccn1

[19, 2.92]
